experiment: single dose PK in male ICR mouse (IV and PO); assay type: in vivo; conditions: mouse, plasma; male ICR mice; IV (2 mg/kg)

>  <MOL>
CS(=O)(=O)c1nn(Cc2nc3cc(Cl)ccc3n2CCCC(F)(F)F)c2cnccc12

>  <half-life>
1.26 h

$$$$

* * *

test system: RSV Long strain; assay: Viral Cytopathic Effect (CPE) Assay; type: cell-based; conditions: human respiratory syncytial virus, 144 h, cell viability after 6 days, Cell Counting kit-8
pEC50: −log10 of the molar value.
Criterion: pEC50 strictly less than 8. Met: yes (1). Not met: no (0).

>  <COMPOUND>
CS(=O)(=O)c1nn(Cc2nc3cc(Cl)ccc3n2-c2ccc(Cl)nc2)c2ccccc12 [Example 3-5]

>  <EXPERIMENTAL TARGET>
RSV Long strain

>  <CATEGORY LABEL>
yes (1)

$$$$
>  <COMPOUND>
CC(O)(CCn1c(Cn2nc(S(C)(=O)=O)c3ccncc32)nc2cc(Cl)ccc21)C(F)(F)F (stereo not drawn) [Example 14]

>  <EXPERIMENTAL TARGET>
RSV Long strain

>  <CATEGORY LABEL>
no (0)

$$$$
>  <COMPOUND>
CC(C)(O)[C@H]1C[C@H](n2c(Cn3nc(S(C)(=O)=O)c4ccncc43)nc3cc(Cl)ccc32)C1 [Example 2-39]

>  <EXPERIMENTAL TARGET>
RSV Long strain

>  <CATEGORY LABEL>
no (0)

$$$$
>  <COMPOUND>
CS(=O)(=O)c1nn(Cc2nc3cc(Cl)ccc3n2C2CNC2)c2cnccc12 [Example 2-14]

>  <EXPERIMENTAL TARGET>
RSV Long strain

>  <CATEGORY LABEL>
yes (1)

$$$$
>  <COMPOUND>
CC(C)S(=O)(=O)c1nn(Cc2nc3cc(Cl)ccc3n2CCCS(C)(=O)=O)c2ccccc12 [Example 1-9]

>  <EXPERIMENTAL TARGET>
RSV Long strain

>  <CATEGORY LABEL>
yes (1)

$$$$
>  <COMPOUND>
CS(=O)(=O)c1nn(Cc2nc3cc(Cl)cc(F)c3n2[C@@H]2CCS(=O)(=O)C2)c2cnccc12 [Example 12]

>  <EXPERIMENTAL TARGET>
RSV Long strain

>  <CATEGORY LABEL>
no (0)

$$$$
>  <COMPOUND>
CS(=O)(=O)c1nn(Cc2nc3cc(Cl)ccc3n2[C@@H]2CCN(S(C)(=O)=O)C2)c2cnccc12 [Example 6-6]

>  <EXPERIMENTAL TARGET>
RSV Long strain

>  <CATEGORY LABEL>
no (0)

$$$$
>  <COMPOUND>
CS(=O)(=O)CCCn1c(Cn2cc(S(C)(=O)=O)c3cc(F)ccc32)nc2cc(Cl)ccc21 [Example 1-3]

>  <EXPERIMENTAL TARGET>
RSV Long strain

>  <CATEGORY LABEL>
yes (1)

$$$$
>  <COMPOUND>
CS(=O)(=O)CCn1c(Cn2nc(S(C)(=O)=O)c3ccncc32)cc2cc(Cl)ccc21 [Example 9-1]

>  <EXPERIMENTAL TARGET>
RSV Long strain

>  <CATEGORY LABEL>
no (0)

$$$$
>  <COMPOUND>
CCS(=O)(=O)c1cn(Cc2nc3cc(Cl)ccc3n2CCCS(C)(=O)=O)c2ccccc12 [Example 1-5]

>  <EXPERIMENTAL TARGET>
RSV Long strain

>  <CATEGORY LABEL>
yes (1)

$$$$
